Ref: patent EP4656642A1

MEASURED_ON: UniProtKB P03372
Sequence (P03372 1-595): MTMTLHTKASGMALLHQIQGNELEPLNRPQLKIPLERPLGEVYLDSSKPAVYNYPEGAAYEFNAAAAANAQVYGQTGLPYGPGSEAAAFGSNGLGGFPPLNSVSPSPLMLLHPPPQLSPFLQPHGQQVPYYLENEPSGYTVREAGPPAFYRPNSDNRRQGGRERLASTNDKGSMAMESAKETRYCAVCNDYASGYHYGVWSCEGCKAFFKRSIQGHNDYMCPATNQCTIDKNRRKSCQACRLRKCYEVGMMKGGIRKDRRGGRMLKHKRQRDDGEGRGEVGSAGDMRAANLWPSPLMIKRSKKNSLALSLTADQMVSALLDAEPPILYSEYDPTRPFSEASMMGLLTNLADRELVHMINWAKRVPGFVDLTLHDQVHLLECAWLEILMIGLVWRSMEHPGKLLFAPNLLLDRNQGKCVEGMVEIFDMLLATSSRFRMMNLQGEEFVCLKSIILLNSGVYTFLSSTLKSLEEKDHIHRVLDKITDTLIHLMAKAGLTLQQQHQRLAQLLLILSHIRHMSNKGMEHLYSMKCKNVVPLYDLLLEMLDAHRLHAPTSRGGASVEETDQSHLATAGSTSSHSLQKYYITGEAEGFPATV
ASSAY_SUMMARY: Degradation of ERα in T-47D cells (immunoblotting, 4 h)
Assay type: cell-based
Parameters: host or cells: T-47D
MEASUREMENT_SETUP: 10nM compound
METRIC: Degradation rate (%) of ERα in T-47D cells

- COMPOUND: "CN(CC(=O)N1CCC2(CC1)COc1c2ccc2c1CN(C1CCC(=O)NC1=O)C2=O)C1CC2(CCN(c3ccc([C@@H]4c5ccc(O)cc5CC[C@@H]4c4ccccc4)cc3)CC2)C1 (stereo partly drawn)"
  ASSAY_VALUE: 78
- COMPOUND: "O=C1CCC(N2C(=O)c3ccc4c(c3C2=O)OCC42CCN(C3CC4(CCN(c5ccc([C@@H]6c7ccc(O)cc7CC[C@@H]6c6ccccc6)cc5)CC4)C3)CC2)C(=O)N1 (stereo partly drawn)"
  ASSAY_VALUE: 23
- COMPOUND: "O=C1CCC(N2Cc3c(ccc4c3OCC43CCN(C4CCC5(CC4)CCN(c4ccc(C6=C(c7ccc(Cl)cc7Cl)CCCc7cc(C(=O)O)ccc76)cc4)CC5)CC3)C2=O)C(=O)N1 (stereo not drawn)"
  ASSAY_VALUE: 57

###

Items are presented alongside their recorded Degradation rate (%) of ERα in T-47D cells.
MEASURED_ON: ERα (Homo sapiens, UniProt P03372)
ASSAY_SUMMARY: Degradation of ERα in T-47D cells (immunoblotting, 4 h)
Type: cell-based
Design: host or cells: T-47D
MEASUREMENT_SETUP: 10nM compound
METRIC: Degradation rate (%) of ERα in T-47D cells

- COMPOUND: "C[C@@H]1CN(C(=O)C2CCN(c3cc(F)c(C4c5ccc(O)cc5C[C@@H](C)N4CC(F)F)c(F)c3)CC2)CCC1N1CCC2(CC1)COc1c2ccc2c1CN(C1CCC(=O)NC1=O)C2=O (stereo partly drawn)"
  MEASURED_ON: "ERα (Homo sapiens, UniProt P03372)"
  ASSAY_VALUE: 68
- COMPOUND: "C[C@@H]1Cc2c([nH]c3ccccc23)[C@@H](c2c(F)cc(N3CCC(N4CC[C@@H](N5CCC6(CC5)COc5c6ccc6c5CN(C5CCC(=O)NC5=O)C6=O)[C@@H](F)C4)CC3)cc2F)N1CC(F)F (stereo partly drawn)"
  MEASURED_ON: "ERα (Homo sapiens, UniProt P03372)"
  ASSAY_VALUE: 82
- COMPOUND: "CN(C(=O)CN1CCC2(CC1)COc1c2ccc2c1CN(C1CCC(=O)NC1=O)C2=O)C1CCC2(CC1)CCN(c1ccc([C@@H]3c4ccc(O)cc4CC[C@@H]3c3ccccc3)cc1)CC2 (stereo partly drawn)"
  MEASURED_ON: "ERα (Homo sapiens, UniProt P03372)"
  ASSAY_VALUE: 63
